B1: Ras-related protein Rab-9A (Homo sapiens), P51151 (parent)
chain: MAGKSSLFKVILLGDGGVGKSSLMNRYVTNKFDTQLFHTIGVEFLNKDLEVDGHFVTMQIWDTAGQERFRSLRTPFYRGSDCCLLTFSVDDSQSFQNLSNWKKEFIYYADVKEPESFPFVILGNKIDISERQVSTEEAQAWCRDNGDYPYFETSAKDATNVAAAFEEAVRRVLATEDRSDHLIQTDTVNLHRKPKPSSSCC
partner: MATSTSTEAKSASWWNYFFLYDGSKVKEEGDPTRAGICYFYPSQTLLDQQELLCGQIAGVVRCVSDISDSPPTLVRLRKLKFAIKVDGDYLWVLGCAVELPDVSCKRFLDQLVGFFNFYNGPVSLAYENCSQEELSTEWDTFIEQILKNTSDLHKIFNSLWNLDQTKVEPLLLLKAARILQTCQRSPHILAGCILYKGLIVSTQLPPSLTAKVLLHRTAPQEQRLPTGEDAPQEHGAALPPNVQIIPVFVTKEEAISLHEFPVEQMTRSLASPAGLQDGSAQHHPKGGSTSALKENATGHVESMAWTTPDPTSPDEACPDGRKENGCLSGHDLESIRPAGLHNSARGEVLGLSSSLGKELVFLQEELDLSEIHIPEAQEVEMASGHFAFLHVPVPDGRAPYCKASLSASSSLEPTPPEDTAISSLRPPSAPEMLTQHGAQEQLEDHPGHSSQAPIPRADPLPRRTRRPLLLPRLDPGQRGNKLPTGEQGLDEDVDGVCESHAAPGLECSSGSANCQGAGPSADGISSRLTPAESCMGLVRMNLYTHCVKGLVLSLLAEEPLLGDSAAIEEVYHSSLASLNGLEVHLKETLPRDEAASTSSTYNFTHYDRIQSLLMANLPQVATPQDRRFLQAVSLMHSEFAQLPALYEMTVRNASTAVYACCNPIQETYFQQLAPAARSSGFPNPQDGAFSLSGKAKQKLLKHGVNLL

- Variants of: B1
- condition: with hps4_human HPS4, Q9NQG7
measure: effect of a mutation on the interaction

Worked cases, answers included:
- mutationKey: "T34A;Q66L"
  observedMeasurement: "with no effect"
- mutationKey: "Q66L;L72A"
  observedMeasurement: "with no effect"
- mutationKey: "Q35A;Q66L"
  observedMeasurement: "with no effect"
- mutationKey: "H38A;Q66L"
  observedMeasurement: "with no effect"
- mutationKey: "V42A;Q66L"
  observedMeasurement: "with no effect"
- mutationKey: "Q66L;F76A"
  observedMeasurement: "with no effect"

Continue with the next variant.
Endpoint output: effect of a mutation on the interaction of Q66L . Value?
with no effect
